Data origin, for the record: patent US9688695B2

# Assayed System: PAR4 (Homo sapiens (Human))
# Sequence (Q96RI0 18-385): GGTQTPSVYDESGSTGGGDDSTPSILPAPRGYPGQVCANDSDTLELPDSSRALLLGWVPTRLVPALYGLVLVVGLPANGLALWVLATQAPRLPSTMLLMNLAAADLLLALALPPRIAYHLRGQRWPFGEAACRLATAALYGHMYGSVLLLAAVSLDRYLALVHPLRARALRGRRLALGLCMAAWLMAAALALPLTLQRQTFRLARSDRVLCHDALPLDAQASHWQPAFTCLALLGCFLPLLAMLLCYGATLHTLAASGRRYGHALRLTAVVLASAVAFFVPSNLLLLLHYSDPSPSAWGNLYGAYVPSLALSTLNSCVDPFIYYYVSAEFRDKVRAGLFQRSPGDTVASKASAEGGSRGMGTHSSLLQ
# Procedure Text: Gamma thrombin induced platelet aggregation assay (PRP assay)
# Conditions Used: human platelet rich plasma, 96-well microplate
# Protocol: Platelet aggregation can be monitored in a 96-well microplate aggregation assay format or using standard platelet aggregometer. The platelet rich plasma was isolated by centrifugation at 170 g for 14 minutes. The ability of the compounds of the current invention to inhibit platelet aggregation induced by gamma-thrombin was tested in a 96-well microplate aggregation assay format. […] Molecular Devices (Sunnyvale, Calif.) SPECTRAMAX® Plus Plate Reader. […] IC50 values are determined using Excel Fit software.
pIC50: −log10 of the molar value.

Molecule: COc1cc(OCc2csc(Nc3ccc4scnc4c3)n2)c2cc(-c3cn4nc(C)ccc4n3)oc2c1
pIC50: < 5.52

Molecule: COc1cc(OCc2csc(N3CCN(C)C(C)C3)n2)c2cc(-c3cn4nc(C)ccc4n3)oc2c1 (stereo not shown)
pIC50: < 5.52

Molecule: COc1cc(OCc2csc(NCCN3CCOCC3)n2)c2cc(-c3cn4nc(C)ccc4n3)oc2c1
pIC50: < 5.52

Molecule: COc1cc(OCc2csc(N3CCC3)n2)c2cc(-c3cn4nc(C)ccc4n3)oc2c1
pIC50: < 5.52

Molecule: COc1cc(OCc2nc(N)sc2C)c2cc(-c3cn4nc(OC)sc4n3)oc2c1
pIC50: < 5.52

Molecule: COc1cc(OCc2csc(Nc3cc(C)cc(C)n3)n2)c2cc(-c3cn4nc(C)ccc4n3)oc2c1
pIC50: < 5.52

Molecule: COc1cc(OCc2csc(N3CCC[C@@H]3C)n2)c2cc(-c3cn4nc(C)ccc4n3)oc2c1
pIC50: < 5.52
